pIC50: −log10 of the molar value.
human eIF4E protein (Homo sapiens, UniProt P06730) data, read-out pIC50
Sequence (P06730 whole entry): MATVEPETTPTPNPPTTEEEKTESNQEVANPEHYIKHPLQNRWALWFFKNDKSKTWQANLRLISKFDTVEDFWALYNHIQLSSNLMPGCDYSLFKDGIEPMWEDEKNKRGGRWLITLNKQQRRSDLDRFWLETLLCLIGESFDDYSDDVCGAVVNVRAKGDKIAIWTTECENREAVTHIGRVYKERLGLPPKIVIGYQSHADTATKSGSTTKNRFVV

| compound | result |
| --- | --- |
| Cc1cc(-c2cc(Cl)ccc2OCCn2c(C)nc3c(c2=O)CC(N2CCC4(CC2)CC4(F)F)CC32CC2)c2scc(C(=O)NS(C)(=O)=O)c2n1 (single isomer, unassigned) [Compound 632] | > 7.00 |
| Cc1cc(-c2cc(Cl)ccc2OCCn2c(C)nc3c(c2=O)CC(N(C)C2(c4ccc(F)cc4)CC2)CC3)c2scc(C(=O)O)c2n1 (single isomer, unassigned) [Compound 281] | 6.30 to 7.00 |
| Cc1nc2c(c(=O)n1CC#Cc1ccc(Cl)cc1-c1ccnc3c(C(=O)NS(C)(=O)=O)csc13)CC(N(C)C1CC(F)(F)C1)CC2 (single isomer, unassigned) [Compound 334] | > 7.00 |
| Cc1cc(-c2cc(Cl)ccc2OCCn2c(C)nc3c(c2=O)C[C@H](NC24CC5CC(CC(C5)C2)C4)CC3)c2scc(C(=O)O)c2n1 (single isomer, unassigned) [Compound 412] | > 7.00 |
| Cc1cc(-c2cc(Cl)ccc2OCCn2c(C)nc3c(c2=O)C[C@@H](N2CCC(OC(F)F)CC2)CC3)c2scc(C(=O)O)c2n1 (single isomer, unassigned) [Compound 360] | > 7.00 |

State the measured pIC50 (human eIF4E protein (Homo sapiens, UniProt P06730)) of Cc1cc(-c2cc(Cl)ccc2OCCn2c(C)nc3c(c2=O)C[C@H](N2CC[C@@H](C(F)F)C2)CC3)c2scc(C(=O)O)c2n1 (single isomer, unassigned) [Compound 121]
> 7.00

State the measured pIC50 (human eIF4E protein (Homo sapiens, UniProt P06730)) of Cc1cc(-c2cc(Cl)ccc2OCCn2c(C)nc3c(c2=O)CC(N2CCC4(CN(CC(F)(F)F)CC(F)(F)C4)C2)CC3)c2scc(C(=O)O)c2n1 (single isomer, unassigned) [Compound 512]
> 7.00

State the measured pIC50 (human eIF4E protein (Homo sapiens, UniProt P06730)) of Cc1nc2c(c(=O)n1CC#Cc1ccc(Cl)cc1-c1ccnc3c(C(=O)O)csc13)CC(N1CCC(OC(F)(F)F)CC1)CC2 (single isomer, unassigned) [Compound 534]
> 7.00

State the measured pIC50 (human eIF4E protein (Homo sapiens, UniProt P06730)) of Cc1cc(-c2cc(Cl)ccc2OCCn2c(C)nc3c(c2=O)CC(N(C)C2CCC2)CC3)c2scc(C(=O)O)c2n1 (centres unmarked) [Compound 91]
> 7.00

State the measured pIC50 (human eIF4E protein (Homo sapiens, UniProt P06730)) of Cc1cc(-c2cc(Cl)ccc2OCCn2c(C)nc3c(c2=O)CC(N2CCC(F)(F)C2)CC3)c2scc(C(=O)NS(C)(=O)=O)c2n1 (centres unmarked) [Compound 60]
> 7.00

State the measured pIC50 (human eIF4E protein (Homo sapiens, UniProt P06730)) of Cc1cc(-c2cc(Cl)ccc2OCCn2c(C)nc3c(c2=O)CC(N2CCCC2)CC3)c2scc(C(=O)O)c2n1 (centres unmarked) [Compound 4]
> 7.00

State the measured pIC50 (human eIF4E protein (Homo sapiens, UniProt P06730)) of Cc1cc(-c2cc(Cl)ccc2OCCn2c(C)nc3c(c2=O)C[C@@H](N(C)[C@H]2CC[C@@](C)(O)CC2)CC3)c2scc(C(=O)NS(C)(=O)=O)c2n1 (single isomer, unassigned) [Compound 215]
> 7.00

State the measured pIC50 (human eIF4E protein (Homo sapiens, UniProt P06730)) of Cc1cc(-c2cc(Cl)ccc2OCCn2c(C)nc3c(c2=O)CC(N(C)CCOC(F)(F)F)CC3)c2scc(C(=O)NS(C)(=O)=O)c2n1 (centres unmarked) [Compound 55]
> 7.00

State the measured pIC50 (human eIF4E protein (Homo sapiens, UniProt P06730)) of Cc1cc(-c2cc(Cl)ccc2OCCn2c(C)nc3c(c2=O)CC(N2CCc4ncccc4C2)CC3)c2scc(C(=O)O)c2n1 (centres unmarked) [Compound 180]
> 7.00
